pKd for assorted molecules
Biological target: FLT3 kinase (Homo sapiens, UniProt P36888)
Sequence (P36888 27-993): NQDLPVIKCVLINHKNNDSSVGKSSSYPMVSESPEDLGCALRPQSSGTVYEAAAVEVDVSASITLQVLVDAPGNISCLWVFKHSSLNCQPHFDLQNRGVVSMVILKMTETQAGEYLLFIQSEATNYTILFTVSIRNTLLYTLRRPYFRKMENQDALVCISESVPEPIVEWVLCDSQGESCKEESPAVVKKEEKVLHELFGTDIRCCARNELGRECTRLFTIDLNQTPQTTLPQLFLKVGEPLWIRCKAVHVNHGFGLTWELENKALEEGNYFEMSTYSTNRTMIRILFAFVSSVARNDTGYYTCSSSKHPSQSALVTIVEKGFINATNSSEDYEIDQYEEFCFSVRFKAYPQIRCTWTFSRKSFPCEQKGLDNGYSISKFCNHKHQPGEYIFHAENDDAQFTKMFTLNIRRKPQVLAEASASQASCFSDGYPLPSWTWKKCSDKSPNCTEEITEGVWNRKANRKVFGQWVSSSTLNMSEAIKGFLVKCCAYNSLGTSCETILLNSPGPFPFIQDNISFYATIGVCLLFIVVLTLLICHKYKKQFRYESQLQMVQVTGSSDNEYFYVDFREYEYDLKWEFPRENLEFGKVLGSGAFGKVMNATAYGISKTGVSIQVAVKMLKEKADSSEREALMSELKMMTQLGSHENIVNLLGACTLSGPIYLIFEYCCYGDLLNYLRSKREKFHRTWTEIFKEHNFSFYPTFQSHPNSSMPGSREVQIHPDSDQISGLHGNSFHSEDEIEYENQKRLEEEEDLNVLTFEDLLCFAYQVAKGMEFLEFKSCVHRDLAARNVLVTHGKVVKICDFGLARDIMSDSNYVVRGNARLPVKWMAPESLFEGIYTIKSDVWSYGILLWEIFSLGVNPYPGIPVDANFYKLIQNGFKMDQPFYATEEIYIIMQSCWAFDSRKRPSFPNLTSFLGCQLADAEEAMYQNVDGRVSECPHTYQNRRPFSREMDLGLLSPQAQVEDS
pKd: −log10 of the molar value.

Study these solved cases before continuing.
molecule	meas-value
CC(C)(C)c1cc(NC(=O)Nc2ccc(-c3ccc(NCCN4CCC(F)(F)CC4)nc3)cc2)no1.CS(=O)(=O)O [Example 107, methanesulfonate]	≥ 9.00
CC(C)(C)c1cc(NC(=O)Nc2ccc(-c3ccc(N)nc3)cc2)no1 [Example 1]	≥ 9.00
CC(C)(C)c1cc(NC(=O)Cc2ccc(-c3ccc(N)nc3)cc2F)no1 [Example 78]	≥ 9.00

# context switch: different molecule, same pKd
So what does the record say about pKd for CC(C)(C)c1cc(NC(=O)Cc2ccc(-c3cnc(N)cc3Cl)cc2)no1.CS(=O)(=O)O [Example 150, methanesulfonate] ?
≥ 9.00

* * *

Biological target: kinase panel containing either 359 or 386 distinct kinases
Assay: Selectivity score S10 from competition binding against a panel of kinases
Conditions: compounds at 10 μM; panel of 386 distinct kinases
observation-type: Kinase specificty: S(10)-386 panel

Reference set, count: 4
compound	meas-value
CS(=O)(=O)O.Cc1nc(-c2ccc(CC(=O)Nc3cc(C(C)(C)C)on3)cc2)cnc1N [Example 113]	B (0.1<B≦0.2 nM)
CC(C)(C)c1cc(NC(=O)Nc2ccc(-c3ccc(N)nc3)cc2)no1 [Example 1]	A (A≦0.1)
CNc1ccc(-c2ccc(CC(=O)Nc3cc(C(C)(C)C)on3)cc2)cn1.CS(=O)(=O)O [Example 110]	B (0.1<B≦0.2 nM)
CC1(c2cc(NC(=O)Cc3ccc(-c4cnc(N)c(Cl)c4)cc3)no2)COC1.CS(=O)(=O)O [Example 128]	B (0.1<B≦0.2 nM)

Would you kindly share the measured Kinase specificty: S(10)-386 panel for Cc1cc(-c2ccc(CC(=O)Nc3cc(C4(C)CC4)on3)cc2)cnc1N [Example 158] ?
A (A≦0.1)

Consider the compound shown here: Nc1ccc(-c2ccc(CC(=O)Nc3cc(C4(C(F)F)CC4)on3)cc2)cn1 [Example 149] What is its recorded Kinase specificty: S(10)-386 panel?
B (0.1<B≦0.2 nM)

Value lookup for Kinase specificty: S(10)-386 panel; key = CC(C)(C)c1cc(NC(=O)Cc2ncc(-c3ccc(N)nc3)cc2F)no1.CS(=O)(=O)O [Example 148]
A (A≦0.1)

Which Kinase specificty: S(10)-386 panel value belongs to Nc1ccc(-c2ccc(CC(=O)Nc3cc(C4(C(F)(F)F)CCC4)on3)cc2)c(F)n1 [Example 167] ?
A (A≦0.1)

Which Kinase specificty: S(10)-386 panel reading was recorded for the compound CC(C)(C)c1cc(NC(=O)Cc2ccc(-c3ccc(NCCN4CCC(F)(F)CC4)nc3)cc2)no1.CS(=O)(=O)O [Example 108] ?
A (A≦0.1)

Which Kinase specificty: S(10)-386 panel is reported for this compound? Cc1nc(N)ccc1-c1ccc(CC(=O)Nc2cc(C3(C)CC3)on2)cc1 [Example 162]
A (A≦0.1)

Find the recorded Kinase specificty: S(10)-386 panel belonging to CC1(c2cc(NC(=O)Cc3ccc(-c4ccc(N)nc4)cc3)no2)CC1.CS(=O)(=O)O [Example 100] and report it.
A (A≦0.1)

Looking for the measured Kinase specificty: S(10)-386 panel of CC(C)(C)c1cc(NC(=O)Cc2ccc(-c3ccc(N)nc3C#N)cc2)no1 [Example 166] , can you help?
A (A≦0.1)

* * *

Target: kinase panel containing either 359 or 386 distinct kinases
Assay: Selectivity score S10 from competition binding against a panel of kinases
Conditions: compounds at 10 μM; panel of 386 distinct kinases
observation-type: Kinase specificty: S(10)-386 panel

compound	meas-value
CC(C)(C)c1cc(NC(=O)Nc2ccc(-c3ccc(NCCN4CCC(F)(F)CC4)nc3)cc2)no1.CS(=O)(=O)O [Example 107]	A (A≦0.1)
CC(C)(c1cc(NC(=O)Cc2ccc(-c3ccc(NCCN4CCOCC4)nc3)cc2)no1)C(F)(F)F.CS(=O)(=O)O [Example 109]	B (0.1<B≦0.2 nM)
CC(=O)O.CC1(c2cc(NC(=O)Cc3ccc(-c4ccc(N)nc4)cc3)no2)CC1(F)F (stereo not shown) [Example 102]	B (0.1<B≦0.2 nM)
Nc1ccc(-c2ccc(CC(=O)Nc3cc(C4(C(F)(F)F)CCC4)on3)cc2)cn1 [Example 124]	B (0.1<B≦0.2 nM)
CC(C)(C)c1cc(NC(=O)Cc2ccc(-c3cnc(N)cc3Cl)cc2)no1.CS(=O)(=O)O [Example 150]	A (A≦0.1)

Please find the next compound below.
Value lookup for Kinase specificty: S(10)-386 panel; key = CS(=O)(=O)O.Nc1ccc(-c2ccc(CC(=O)Nc3cc(C4(C(F)(F)F)CC4)on3)c(F)c2)cn1 [Example 139]
B (0.1<B≦0.2 nM)

* * *

Molecular target: kinase panel containing either 359 or 386 distinct kinases
Assay: Selectivity score S10 from competition binding against a panel of kinases
Settings: compounds at 10 μM; panel of 359 distinct kinases
observation-type: Kinase specificty: S(10)-359 panel

Worked cases, answers included:
compound-structure	meas-value
COCCNc1ncc(-c2ccc(NC(=O)Nc3cc(C(C)(C)C)on3)cc2)cn1	B (0.1<B≦0.2 nM)
O=C(Cc1cccc(C(F)(F)F)c1)Nc1ccc(-c2cnc(NC3CC3)nc2)cn1	A (A≦0.1)
CC(C)(C)c1cc(NC(=O)Nc2ccc(-c3ccc(NCCN4CCOCC4)nc3)cc2)no1	A (A≦0.1)
CC(C)(C)c1cc(NC(=O)Nc2ccc(-c3cnc(OCCN4CCOCC4)nc3)cc2)no1	A (A≦0.1)
CC(C)Nc1ncc(-c2ccc(NC(=O)Cc3cccc(C(F)(F)F)c3)nc2)cn1	A (A≦0.1)

Lookup: Kinase specificty: S(10)-359 panel / kinase panel containing either 359 or 386 distinct kinases / CC(C)(C)c1cc(NC(=O)Nc2ccc(-c3cnc(N)c(CO)c3)cc2)no1
A (A≦0.1)

Identify the measured Kinase specificty: S(10)-359 panel of CC(C)(C)c1cc(NC(=O)Nc2ccc(-c3cnc4c(c3)OCC(=O)N4)cc2)no1 for kinase panel containing either 359 or 386 distinct kinases.
A (A≦0.1)

What is its Kinase specificty: S(10)-359 panel for kinase panel containing either 359 or 386 distinct kinases? Entry: Cc1nc(N)ccc1-c1ccc(NC(=O)Nc2cc(C(C)(C)C)on2)cc1
A (A≦0.1)

Identify the measured Kinase specificty: S(10)-359 panel of Cc1cc(N)nc(C)c1-c1ccc(NC(=O)Nc2cc(C(C)(C)C)on2)cc1 for kinase panel containing either 359 or 386 distinct kinases.
A (A≦0.1)

Report Kinase specificty: S(10)-359 panel for CC(C)Nc1ncc(-c2ccc(NC(=O)Nc3cc(C(C)(C)C)on3)nc2)cn1 tested on kinase panel containing either 359 or 386 distinct kinases.
B (0.1<B≦0.2 nM)
